The measurements presented in this section are drawn from PubChem BioAssay (NCATS).

# Test system: DIV17
# experimentDescription: qHTS profiling for inhibitors of Plasmodium falciparum proliferation (AID 504749); further: nearly all actives have a fitted effect of over 60% in size; further: potency means the concentration at half of the fitted maximal effect
# testSettings: P. falciparum in erythrocytes, SYBR Green DNA, 72 h; series mostly up to 28.7 µM
Results filed as inconclusive are left out. Activity calls are given as the source filed them. The call rests on the fitted dose curve; in most records, active means well fitted inhibition curve with a large enough effect; inconclusive means small, poorly fitted or top-dose-only effect; inactive means flat fitted curve, though single readings scatter.
measuredParameter: Potency

Take a look at these entries with their results.
Asked: // Potency lookup, key: C=CCN1CC(C(=O)N(CCCN(C)C)C(=O)NCC)CC2c3cccc4[nH]cc(c34)CC21 (centres undefined)
Given back: 13500 nM (active)

Asked: Then what about the molecule "CN[C@H](C)CCC=C(C)C" ?
Given back: 190 nM (active)

Asked: What about CC1CN(c2c(F)c(N)c3c(=O)c(C(=O)O)cn(C4CC4)c3c2F)CC(C)N1 (centres undefined) ?
Given back: inactive

Asked: And the next one, O=C(O)CC(O)CC(O)/C=C/c1c(C2CC2)nc2ccccc2c1-c1ccc(F)cc1 (centres undefined) ?
Given back: inactive

Asked: Record: CCC(C(=O)C(C)C(O)C(C)CCc1ccc(C)c(O)c1C(=O)O)C1OC(CC)(C2CC[C@@](O)(CC)C(C)O2)CC1C (some centres undefined)
Given back: 849 nM (active)

Provide the reported Potency of each entry below, same order.
1. C=C1C(=O)O[C@@H]2[C@@H]1CC/C(C)=C\CC[C@@]1(C)O[C@H]21
2. CCCSS/C(CCO)=C(/C)N(C=O)Cc1cnc(C)nc1N
3. CC1(C)C2CC[C@]1(C)[C@@H](O)C2
4. C[C@@H]1CC2C3CCC4=CC(=O)C=C[C@]4(C)[C@@]3(F)[C@@H](O)C[C@]2(C)[C@@]1(O)C(=O)COC(=O)c1cccc(S(=O)(=O)O)c1 (some centres undefined)

Given back:
inactive
inactive
inactive
inactive
